B1: Membrane-associated guanylate kinase, WW and PDZ domain-containing protein 1, residues 352 to 401; numbered along this chain, Q96QZ7 (parent)
chain: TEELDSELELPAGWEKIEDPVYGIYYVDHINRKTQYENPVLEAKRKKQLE

variants of: B1; assay: abundance fitness (aPCA) (normalised: wild type 0, dead -1); higher = more abundant; growth selection in yeast, the domain comes from the species named; details: Homo sapiens
What abundance fitness was measured for each of the following?
Just the number, please, no unit after it.

Q: # input variant: W14Q ; wanted: its abundance fitness
Result: -0.631

Q: # input variant: N38P ; wanted: its abundance fitness
Result: -0.481

Q: # input variant: P39S ; wanted: its abundance fitness
Result: -0.597

Q: # input variant: G23S ; wanted: its abundance fitness
Result: -0.79

Q: # input variant: K46Q ; wanted: its abundance fitness
Result: -0.026

Q: # input variant: Y22F ; wanted: its abundance fitness
Result: -0.122

Q: # input variant: L8E ; wanted: its abundance fitness
Result: -0.2

Q: # input variant: Y36W ; wanted: its abundance fitness
Result: -0.093

Q: # input variant: L41Y ; wanted: its abundance fitness
Result: -0.021

Q: # input variant: Q48I ; wanted: its abundance fitness
Result: 0.188

Q: # input variant: E7S ; wanted: its abundance fitness
Result: -0.153

Q: # input variant: I17E ; wanted: its abundance fitness
Result: -0.408

Q: # input variant: N38G ; wanted: its abundance fitness
Result: -0.45

Q: # input variant: K33L ; wanted: its abundance fitness
Result: -0.028

Q: # input variant: A43N ; wanted: its abundance fitness
Result: -0.014

Q: # input variant: V21T ; wanted: its abundance fitness
Result: 0.081

Q: # input variant: H29Q ; wanted: its abundance fitness
Result: -0.465

Q: # input variant: L10R ; wanted: its abundance fitness
Result: -0.626

Q: # input variant: K46E ; wanted: its abundance fitness
Result: -0.256

Q: # input variant: I30N ; wanted: its abundance fitness
Result: -0.397

Q: # input variant: R32K ; wanted: its abundance fitness
Result: -0.061

Q: # input variant: S6K ; wanted: its abundance fitness
Result: -0.148

The measurements presented in this section are drawn from the Human Domainome abundance scans (Beltran et al. 2025).
